TARGET ENTITY: human GR (Homo sapiens)
Sequence (P04150 whole entry): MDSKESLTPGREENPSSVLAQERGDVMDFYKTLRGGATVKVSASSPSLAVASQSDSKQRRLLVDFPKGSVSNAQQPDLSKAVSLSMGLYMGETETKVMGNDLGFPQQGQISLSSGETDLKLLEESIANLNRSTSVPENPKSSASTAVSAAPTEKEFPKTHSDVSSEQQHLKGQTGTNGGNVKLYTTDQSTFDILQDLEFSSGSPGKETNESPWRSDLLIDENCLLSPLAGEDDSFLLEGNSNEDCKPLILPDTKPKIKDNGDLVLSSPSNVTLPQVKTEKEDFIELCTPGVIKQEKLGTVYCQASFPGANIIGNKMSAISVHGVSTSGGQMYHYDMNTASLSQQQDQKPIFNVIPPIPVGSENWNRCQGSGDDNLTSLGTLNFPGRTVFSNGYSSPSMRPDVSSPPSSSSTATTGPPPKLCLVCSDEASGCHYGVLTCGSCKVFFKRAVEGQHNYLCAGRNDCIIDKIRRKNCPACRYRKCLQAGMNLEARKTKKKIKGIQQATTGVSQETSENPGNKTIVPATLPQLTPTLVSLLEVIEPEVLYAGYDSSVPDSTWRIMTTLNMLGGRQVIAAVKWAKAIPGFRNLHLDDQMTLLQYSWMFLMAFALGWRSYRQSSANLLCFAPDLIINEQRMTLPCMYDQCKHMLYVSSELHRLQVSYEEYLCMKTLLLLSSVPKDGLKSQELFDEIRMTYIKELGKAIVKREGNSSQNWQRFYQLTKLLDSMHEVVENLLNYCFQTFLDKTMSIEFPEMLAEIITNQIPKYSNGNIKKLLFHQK
ASSAY EXPLANATION: Trans-Activation Modulation of Glucocorticoid Receptor (GRAMMER), MMTV-LUC reporter gene
Assay type: cell-based
Set-up: endogenous in cells
MEASUREMENT CONDITIONS: A549; read-out: Transactivation A549 Cells GRAMMER Emax (%)
Given measured Emax, output condition met if it is greater than or equal to 30% and condition not met if not.

C[C@]12Cc3cnn(-c4ccc(F)cc4)c3C=C1CC[C@@]2(O)CCc1ccccc1C1(NS(=O)(=O)C2CC2)CC1 = condition met
C[C@]12Cc3cnn(-c4ccc(F)cc4)c3C=C1CC[C@@]2(O)CCc1ccc(F)cc1C#N = condition met
C[C@]12Cc3cnn(-c4ccc(F)cc4)c3C=C1CC[C@@]2(O)CCc1ccc(F)cc1C(N)=O = condition met
C[C@]12Cc3cnn(-c4ccc(F)cc4)c3C=C1CC[C@@]2(O)CCc1ccccc1C(F)C(N)=O (single isomer, unassigned) = condition not met
C[C@]12Cc3cnn(-c4ccc(F)cc4)c3C=C1CC[C@@]2(O)CCc1ccccc1CNS(=O)(=O)C1CC1 = condition met

Given the entry C[C@]12Cc3cnn(-c4ccc(F)cc4)c3C=C1CC[C@@]2(O)CCc1cccc(F)c1CO , answer whether its Emax meets or surpasses 30%.
condition met

Threshold query (Emax >= 30%) on C[C@]12Cc3cnn(-c4ccc(F)cc4)c3C=C1CC[C@@]2(O)CCc1ccccc1C(=O)N1CC(=O)C1
condition met

Does COC(=O)C1(NC(=O)c2ccccc2CC[C@]2(O)CCC3=Cc4c(cnn4-c4ccc(F)cc4)C[C@@]32C)CC1 have a reported Emax of at least 30%?
condition not met

Check this molecule for Emax at or above 30%: COC(=O)C(C)(C)NC(=O)c1ccccc1CC[C@]1(O)CCC2=Cc3c(cnn3-c3ccc(F)cc3)C[C@@]21C
condition met

Exam item: decide whether the reported Emax for CCS(=O)(=O)c1ccccc1CC[C@]1(O)CCC2=Cc3c(cnn3-c3ccc(F)cc3)C[C@@]21C is at least 30%.
condition met

Is Emax at least 30%? Consider CC(C)NC(=O)c1ccccc1CC[C@]1(O)CCC2=Cc3c(cnn3-c3ccc(F)cc3)C[C@@]21C
condition met

Hello, I need to know if COC(=O)C(C)(C)NC(=O)c1c(F)cccc1CC[C@]1(O)CCC2=Cc3c(cnn3-c3ccc(F)cc3)C[C@@]21C has measured Emax not below 30%. Thanks!
condition not met

Could you tell me if the measured Emax of C[C@]12Cc3cnn(-c4ccc(F)cc4)c3C=C1CC[C@@]2(O)CCc1ccccc1S(C)(=O)=O reaches 30% or more?
condition met

Could you verify whether the entry C[C@]12Cc3cnn(-c4ccc(F)c(F)c4)c3C=C1CC[C@@]2(O)CCc1cccc(F)c1C(N)=O shows Emax of no less than 30%?
condition met
